# System: glycogen synthase kinase-3 (GSK3A per assay name; protocol says GSK3B)
# assay-details: GSK3 binders on small-molecule microarrays, primary screen, biochemical, small-molecule microarray, 635 nm fluorescence, GSK3A (AID 1103); further: the record names both GSK3A and GSK3B
# condition-notes: small-molecule microarray binding, fluorescence 635 nm; higher = more signal
observable: composite z-score
Numbers only.

C=CCC(OC(C)=O)[C@@H]1[C@@H](N(Cc2cccc3ccccc23)C(=O)Cc2ccc(OC)cc2)c2cc(OCCCO)ccc2N1C(=O)Cc1ccc(OC)cc1 (stereo partly drawn) = -0.45
C=C(C(=O)CC[C@H](OC(C)=O)c1ccc(CO)o1)C(C)C = 0.626
C=CC[C@]1(C(=O)N2CCCCC2)COC(c2ccc(OCCCO)cc2)=N1 = -0.217

Provide each entry's composite z-score from the list below.
1. CCCCCN1CC=CC23O[C@@H]4/C=C\CCC(C)OC(=O)C4[C@H]2C(=O)N(CCO)[C@@H]3C1=O (stereo partly drawn)
2. CCOC(=O)C[C@H]1[C@H](OC(=O)c2ccc(-c3ccccc3)cc2)[C@@H](NC(=O)C2CCCCC2)c2cc(OCCCO)ccc2N1C(=O)c1ccc2ccccc2n1
3. CO[C@H]1O[C@H](CO)[C@@H](OC(=O)Nc2ccccc2)[C@H](OC(=O)Nc2ccccc2-c2ccccc2)[C@H]1OC(=O)Nc1ccccc1-c1ccccc1

Return:
-0.413
0.708
1.31

Provide each entry's composite z-score from the list below.
1. C=C(COC)/C(=C/C[C@H](OC(C)=O)c1ccc(CO)o1)c1cnc2ccccc2c1
2. CC(C)C(=C=CC[C@@H](O)c1ccc(CO)o1)CCO

Return:
1.29
0.367

----------
# system: Fibroblast growth factor 10 (Homo sapiens) (UniProt O15520)
# Sequence (O15520 whole entry, looked up): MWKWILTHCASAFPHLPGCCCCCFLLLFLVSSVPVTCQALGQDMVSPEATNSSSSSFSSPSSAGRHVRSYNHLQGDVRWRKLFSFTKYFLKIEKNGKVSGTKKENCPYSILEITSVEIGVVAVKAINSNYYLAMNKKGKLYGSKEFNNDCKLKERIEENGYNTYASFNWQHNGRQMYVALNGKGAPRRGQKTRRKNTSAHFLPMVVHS
# assay-details: FGF10 binders on small-molecule microarrays, primary screen, biochemical, small-molecule microarray, 635 nm fluorescence (AID 1102)
# condition-notes: FGF10 binding, fluorescence 635 nm, higher = more signal
observable: composite z-score
One number for each entry.

Consider the worked cases shown below.
O=C(NCc1ccccc1)[C@@H]1c2ccccc2C(=O)N(Cc2ccccc2Cl)[C@H]1c1ccc(CO)cc1 = 0.814
C=C(COC)C(=O)CC[C@H](OC(=O)c1ccccc1-c1ccccc1C(=O)O)c1ccccc1OCCO = 0.595
O=C1c2ccccc2C(=O)c2cc([C@H]3Oc4ccccc4S(=O)(=O)N4CCC[C@@H]34)ccc21 = -0.439
CCCC[C@@H](O)C1=C(C)C[C@H]2C(=O)N(C)C(=O)[C@H]2[C@H]1CO = 0.755
C=CCNC(=O)[C@@H]1[C@H]2C(=O)O[C@H](c3ccccc3)[C@H](c3ccccc3)N2[C@H](c2ccc(O)cc2)[C@@]12C(=O)N(C(=O)OCCOC)c1ccc(C#Cc3ccc(OC)cc3)cc12 = 0.793
CC(=O)NCCCC[C@@H]1NC(=O)[C@@H]2C[C@H](C(=O)O)[C@H](c3cccc(OCCO)c3)N2C1=O = 1.13
C=CCNC(=O)[C@@H]1[C@H]2C(=O)O[C@H](c3ccccc3)[C@H](c3ccccc3)N2[C@H](c2ccc(O)cc2)[C@@]12C(=O)Nc1ccccc12 = 0.237
C=CC[C@]1(C(=O)N(C)C)N=C(c2ccc(OCCCO)cc2)O[C@H]1c1ccccc1CN=[N+]=[N-] = 0.698

Provide each entry's composite z-score from the list below.
1. C=CC[C@@]1(C(=O)NCc2ccccc2)N=C(c2ccc(OCCCO)cc2)O[C@@H]1c1ccccc1
2. CCOC(=O)C[C@H]1[C@H](OC(=O)c2ccc(-c3ccccc3)cc2)[C@@H](NC(=O)c2ccccc2)c2cc(OCCCO)ccc2N1C(=O)c1ccccc1
3. [N-]=[N+]=NCc1ccccc1C[C@]1(C(=O)NCc2ccccc2)N=C(c2ccc(OCCCO)cc2)O[C@H]1c1ccccc1
4. COC(=O)C1=CC(c2ccc(CO)cc2)=CC(C2CC2)N(C)C=C1C(=O)OC (stereo not given)
5. COCCCNC(=O)[C@@]1(C)c2ccccc2C(=O)N(Cc2cc(F)cc(C(F)(F)F)c2)[C@H]1c1ccc(CO)cc1
6. COCCCNC(=O)[C@@]1(Cc2ccccc2CN=[N+]=[N-])COC(c2ccc(OCCCO)cc2)=N1
7. Cc1ccc(S[C@]2(C(=O)NC3CC3)CC(=O)N(Cc3ccccc3C(F)(F)F)[C@@H]2c2ccc(CO)cc2I)cc1

Return:
1: -0.28; 2: 0.767; 3: 0.19; 4: 0.17; 5: 0.22; 6: 1.38; 7: -0.28
